Measured values drawn from patent US8487009B2 for this set.

System: CD86 expression in murine macrophages
assay protocol: CD86 expression in murine macrophages (FACS)
Type: cell-based
condition parameters: 10 μM, 24 h
Below, each entry is listed alongside its reported Effect on CD86 expression in murine macrophages, % of control.
Answer format: numeric, % implied, no suffix.

Query string: Quote Effect on CD86 expression in murine macrophages, % of control reported for `CC(=Cc1cc(O)cc(O)c1)c1ccccc1` please.
Result string: 90

Query string: Quote Effect on CD86 expression in murine macrophages, % of control reported for `CC(C)c1c(O)cc(C=C(C#N)c2ccccc2)cc1O` please.
Result string: 16

Query string: Quote Effect on CD86 expression in murine macrophages, % of control reported for `CC(C)c1c(O)cc(C=Cc2cccs2)cc1O` please.
Result string: 2

Query string: Quote Effect on CD86 expression in murine macrophages, % of control reported for `CC(=Cc1cc(O)c(C(C)C)c(O)c1)c1ccccc1` please.
Result string: 51

Query string: Quote Effect on CD86 expression in murine macrophages, % of control reported for `CC(C)c1c(O)cc(C=C(c2ccccc2)c2ccccc2)cc1O` please.
Result string: 10

Query string: Quote Effect on CD86 expression in murine macrophages, % of control reported for `CC(C)c1c(O)cc(C=Cc2ccccn2)cc1O.Cl` please.
Result string: 88

Query string: Quote Effect on CD86 expression in murine macrophages, % of control reported for `CC(=Cc1ccccc1)c1cc(O)c(C(C)C)c(O)c1` please.
Result string: 0
